Reported pKd against Tyrosine-protein kinase JAK2 (Homo sapiens, UniProt O60674), gathered from multiple publications, appears below.
pKd: −log10 of the molar value.

INSERT INTO results (compound, quantity, assay_result) VALUES
  ('Cc1cc(Nc2nc(C(O)(c3ccc(F)cc3)c3ccc(F)cc3)nc3ccccc23)n[nH]1', 'pKd', '< 8.00'),
  ('Cc1cc(Nc2nc(C(F)(F)c3ccc(F)cc3)nc3c2cnn3CCN2CCOCC2)n[nH]1', 'pKd', '8.00 to 9.00'),
  ('Cc1cc(CNc2[nH]nc(Nc3ccc(CN4CCCCC4)cc3)c2C(N)=O)cc(C)c1O', 'pKd', '6.00 to 7.00'),
  ('Cc1cc(CNc2[nH]nc(Nc3ccc(N4CCC(N5CCCC5)CC4)nc3)c2C(N)=O)cc(C)c1O', 'pKd', '6.00 to 7.00'),
  ('COc1cc(Nc2nc(C(F)(F)c3ccc(F)cn3)nc3ccccc23)n[nH]1', 'pKd', '≥ 9.00'),
  ('COCCOc1ccc2c(Nc3cc(C)[nH]n3)nc(C(O)c3ccc(F)cc3)nc2c1 (racemic)', 'pKd', '≥ 9.00'),
  ('Cc1cc(Nc2nc(C(F)(F)c3ccc(F)cc3)nc3nn(C)cc23)n[nH]1', 'pKd', '≥ 9.00');

Consider the record given below.
Return pKd measured with Tyrosine-protein kinase JAK2 (Homo sapiens, UniProt O60674) given this compound: Cc1cc(Nc2nc(S(=O)(=O)c3ccc(F)cc3)nc3c2ccn3CCS(C)(=O)=O)n[nH]1
≥ 9.00

----------
pKd: −log10 of the molar value.
Multi-source literature compilation: pKd on Tyrosine-protein kinase JAK2 (Homo sapiens, UniProt O60674).

INSERT INTO results (smiles_str, quantity, assay_result) VALUES
  ('Cc1cc(CNc2[nH]nc(Nc3ccc(N4CCN(C(=O)N5CCCC5)CC4)cc3)c2C(N)=O)cc(C)c1O', 'pKd', '< 6.00');

Could you share what pKd was measured for CC(=O)Nc1cccc2c(Nc3cc(C)[nH]n3)nc(C(F)(F)c3ccc(F)cn3)nc12 , tested on Tyrosine-protein kinase JAK2 (Homo sapiens, UniProt O60674)?
≥ 9.00

Hi! What's the reported pKd for CCc1cc(O)c(F)cc1-c1ccc2c(-c3nc4c([nH]3)CCN(C(=O)N3CCC(N5CCCCC5)CC3)C4)n[nH]c2c1 on Tyrosine-protein kinase JAK2 (Homo sapiens, UniProt O60674)?
10.47

Quick check: pKd on Tyrosine-protein kinase JAK2 (Homo sapiens, UniProt O60674), item Cc1cc(Nc2nc(S(=O)(=O)c3ccc(F)cc3)nc3c2cnn3C(C)(C)C)n[nH]1 ?
8.00 to 9.00

Hi! What's the reported pKd for Cc1ccc2c(Nc3cc(C)[nH]n3)nc(C(=O)c3ccc(F)cc3)nc2c1 on Tyrosine-protein kinase JAK2 (Homo sapiens, UniProt O60674)?
≥ 9.00

Query for Tyrosine-protein kinase JAK2 (Homo sapiens, UniProt O60674): what pKd does the record show for Cc1cc(Nc2nc(S(=O)(=O)c3ccc(F)cc3)nc3c2ccn3C(C)C)n[nH]1 ?
≥ 9.00

Request: pKd, test system Tyrosine-protein kinase JAK2 (Homo sapiens, UniProt O60674), entry Cc1cc(Nc2n[nH]c(NCc3cc(C)c(O)c(C)c3)c2C(N)=O)cnc1N1CCN(C(C)C)CC1
< 6.00

Hello, I am looking for reported pKd with Tyrosine-protein kinase JAK2 (Homo sapiens, UniProt O60674) for Cc1cc(CNc2[nH]nc(Nc3ccc(S(N)(=O)=O)cc3)c2C(N)=O)cc(C)c1O . Could you help?
6.00 to 7.00

----------
Here we gather Kd data for Tyrosine-protein kinase JAK2 (Homo sapiens, UniProt O60674) reported by several publications.

Example cases with answers are listed next.
INSERT INTO results (compound, quantity, assay_result) VALUES
  ('Cc1cc(Nc2nc(S(=O)(=O)c3ccc(F)cc3)nc3c2ccn3C)n[nH]1', 'Kd', '≤ 1 nM'),
  ('Cc1cc(Nc2nc(C(F)(F)c3ccc(F)cn3)nc3c(O)cccc23)n[nH]1', 'Kd', '≤ 1 nM');

Lab request: please report Kd under test system Tyrosine-protein kinase JAK2 (Homo sapiens, UniProt O60674) for Cc1cc(Nc2nc(C(CC#N)c3ccc(F)cc3)nc3ccccc23)n[nH]1 (centres unmarked)
1 to 10 nM

What is its Kd for Tyrosine-protein kinase JAK2 (Homo sapiens, UniProt O60674)? Entry: Cc1cc(Nc2nc(C(N)c3ccc(F)cc3)nc3ccccc23)n[nH]1 (racemic)
1 to 10 nM

Give recorded Kd with Tyrosine-protein kinase JAK2 (Homo sapiens, UniProt O60674) for the following compound: Cc1cc(Nc2nc(C(O)c3ccc(F)cc3)nc3c(C)cccc23)n[nH]1 (racemic)
≤ 1 nM

Provide the documented Kd with Tyrosine-protein kinase JAK2 (Homo sapiens, UniProt O60674) as the system for COc1ccc2c(Nc3cc(C)[nH]n3)nc(C(O)c3ccc(F)cc3)nc2c1 (racemic)
≤ 1 nM

// fetch Tyrosine-protein kinase JAK2 (Homo sapiens, UniProt O60674) Kd for COCCn1ccc2c(Nc3cc[nH]n3)nc(S(=O)(=O)c3ccc(F)cc3)nc21
≤ 1 nM

Provide value of Kd for this record tested with Tyrosine-protein kinase JAK2 (Homo sapiens, UniProt O60674): Cc1cc(CNc2[nH]nc(Nc3ccc(N4CCC(N(C)C)CC4)cc3)c2C(N)=O)cc(C)c1O
100 to 1000 nM

----------
Tyrosine-protein kinase JAK2 (Homo sapiens) pKd, compiled from various sources.
pKd: −log10 of the molar value.

Worked examples, 3 compounds total:
INSERT INTO assay_data (smiles_str, assay_result) VALUES
  ('Cc1cc(CNc2[nH]nc(Nc3ccc(-c4cc[nH]n4)cc3)c2C(N)=O)cc(C)c1O', '< 6.00'),
  ('COC(=O)c1cccc2c(Nc3cc(C)[nH]n3)nc(C(F)(F)c3ccc(F)cn3)nc12', '≥ 9.00'),
  ('Cc1cc(Nc2nc(C(F)(F)c3ccc(F)cc3)nc3cc(F)ccc23)n[nH]1', '≥ 9.00');

Please tell me: pKd of C[C@H]1Nc2ccn3ncc(c3n2)C(=O)NCCOc2ccc(F)cc21 , system Tyrosine-protein kinase JAK2 (Homo sapiens)?
10.32

# query: pKd | item Cc1cc(Nc2n[nH]c(NCc3cc(C)c(O)c(C)c3)c2C(N)=O)ccc1N1CCOCC1 | system: Tyrosine-protein kinase JAK2 (Homo sapiens)
< 6.00

Please provide the recorded pKd for Cc1cc(CNc2[nH]nc(Nc3ccc(N4CCC(C(C)C)CC4)cc3)c2C(N)=O)cc(C)c1O , tested on Tyrosine-protein kinase JAK2 (Homo sapiens).
< 6.00

Value wanted: pKd (Tyrosine-protein kinase JAK2 (Homo sapiens)) of entry Cc1cc(Nc2nc(C(F)(F)c3ccc(F)cc3)nc3[nH]ncc23)n[nH]1
≥ 9.00

Hello, I am looking for reported pKd with Tyrosine-protein kinase JAK2 (Homo sapiens) for Cc1cc(Nc2nc(C(F)(F)c3ccc(F)cn3)nc3nn(C4CCCC4)cc23)n[nH]1 . Could you help?
≥ 9.00

----------
Please find below pKd measurements for Tyrosine-protein kinase JAK2 (Homo sapiens, UniProt O60674), combined from several publications.
pKd: −log10 of the molar value.

# example entries with known answers
INSERT INTO assay_data (compound, assay_result) VALUES
  ('Cc1cc(CNc2[nH]nc(Nc3ccc(N4CCSCC4)cc3)c2C(N)=O)cc(C)c1O', '6.00 to 7.00'),
  ('Cc1cc(Nc2nc(C(=O)c3ccc(F)cc3)nc3ccc(F)cc23)n[nH]1', '8.00 to 9.00'),
  ('Cc1cc(Nc2nc(S(=O)(=O)c3ccc(F)cc3)nc3c2cnn3CCN2CCOCC2)n[nH]1', '≥ 9.00');

Shift focus to the following entry.
Query for Tyrosine-protein kinase JAK2 (Homo sapiens, UniProt O60674): what pKd does the record show for COc1cccc(Nc2n[nH]c(NCc3cc(C)c(O)c(C)c3)c2C(N)=O)c1 ?
< 6.00

----------
Listing of pKd toward Tyrosine-protein kinase JAK2 (Homo sapiens, UniProt O60674), each taken from a published source.
pKd: −log10 of the molar value.

Guide cases for pKd, answers given:
INSERT INTO assay_data (molecule, assay_result) VALUES
  ('CN1Cc2cc(F)ccc2OCCNC(=O)c2cnn3ccc1nc23', 8.32),
  ('Cc1cc(Nc2nc(S(=O)(=O)c3ccc(F)cc3)nc3c2ccn3CCN2CCOCC2)n[nH]1', '8.00 to 9.00'),
  ('COc1cc(Nc2nc(C(=O)c3ccc(F)cc3)nc3ccccc23)n[nH]1', '≥ 9.00'),
  ('Cc1cc(CNc2[nH]nc(Nc3ccc(N4CCCCC4)cn3)c2C(N)=O)cc(C)c1O', '6.00 to 7.00');

Requested field: pKd. Item: Cc1cc(Nc2nc(C(F)(F)c3ccc(F)cc3)nc3cc(CO)ccc23)n[nH]1
≥ 9.00

What does the data say about its pKd? Entry: Cc1cc(Nc2nc(C(F)(F)c3ccc(F)cn3)nc3cc(Br)ccc23)n[nH]1
≥ 9.00

Entry Cc1cc(Nc2nc(S(=O)(=O)c3ccc(F)cc3)nc3c2cnn3C2CCOCC2)n[nH]1 has what pKd?
≥ 9.00
